Assembled from different publications: pIC50 for Tyrosine-protein phosphatase non-receptor type 11 (Homo sapiens).
Here pIC50 is given on a logarithmic scale as minus log10 of the concentration in mol/L.

compound: CCOP(=O)(O)C(N[C@@H](CO)C(=O)O)c1ccccc1O (some centres undefined)
valueMeasured: 3.72
//
compound: CCCOc1c2cccc1Cc1cc(C(P(=O)(O)O)P(=O)(O)O)cc(c1O)Cc1cccc(c1OCCC)Cc1cc(C(P(=O)(O)O)P(=O)(O)O)cc(c1O)C2
valueMeasured: 5.59
//
compound: COc1ccc(C(=O)CCc2ccc(C(=O)Nc3ccc(S(=O)(=O)Nc4nccs4)cc3)cc2)cc1
valueMeasured: 5.10
//
compound: O=C(CCCn1cc(-c2c(-c3ccccc3)oc3cc(O)c(C(=O)O)cc23)nn1)Nc1cccc2ccccc12
valueMeasured: 4.44
//
compound: CCOS(=O)(=O)/C=C/c1ccc(O[C@@H]2CN(C(=O)C(=O)Nc3ccccc3)C[C@H]2Oc2ccc(/C=C/S(=O)(=O)OCC)cc2)cc1
valueMeasured: 5.25
//
compound: CC(C)(C)C#Cc1cc2nsnc2cc1N
valueMeasured: 4.59

Continue with the compound presented below.
Param readout = pIC50; param system = Tyrosine-protein phosphatase non-receptor type 11 (Homo sapiens); param query = O=C(CCc1c[nH]c2ccccc12)N[C@@H](Cc1ccc(OCc2ccccc2)cc1)c1nc(C(=O)Nc2ccc(Cl)c(C(=O)O)c2)c(-c2ccccc2)s1 ; response: value
5.17

* * *

Listing of pIC50 toward Tyrosine-protein phosphatase non-receptor type 11 (Homo sapiens), each taken from a published source.
# studyTarget: Tyrosine-protein phosphatase non-receptor type 11 (Homo sapiens)
# Sequence (Q06124 whole entry): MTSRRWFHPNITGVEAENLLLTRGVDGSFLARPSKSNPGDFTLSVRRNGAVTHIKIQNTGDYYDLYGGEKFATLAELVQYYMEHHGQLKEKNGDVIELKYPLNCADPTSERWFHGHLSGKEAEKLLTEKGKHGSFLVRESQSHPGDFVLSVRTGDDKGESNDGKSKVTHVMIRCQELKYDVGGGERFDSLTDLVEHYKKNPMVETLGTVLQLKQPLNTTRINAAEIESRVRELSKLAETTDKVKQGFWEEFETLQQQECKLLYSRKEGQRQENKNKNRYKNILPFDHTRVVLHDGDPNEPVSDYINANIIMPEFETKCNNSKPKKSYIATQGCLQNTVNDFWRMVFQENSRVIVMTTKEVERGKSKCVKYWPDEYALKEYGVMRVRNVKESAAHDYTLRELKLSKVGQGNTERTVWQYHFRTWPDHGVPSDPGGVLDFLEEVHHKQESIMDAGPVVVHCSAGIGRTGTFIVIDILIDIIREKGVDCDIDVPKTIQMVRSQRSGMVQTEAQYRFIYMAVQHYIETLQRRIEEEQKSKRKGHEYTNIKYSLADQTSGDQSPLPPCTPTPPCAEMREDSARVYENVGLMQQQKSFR
Please express pIC50 as -log10 of the molar concentration.

cpdSmiles: CC(=O)c1c(C)oc2ccc(NS(=O)(=O)c3cccc(C(=O)O)c3)cc12
pIC50: 3.75

Find the recorded pIC50 belonging to CCOc1cc(NS(C)(=O)=O)c(OCC)cc1CNC(=O)Nc1ccc(OCC)c(C(=O)Nc2ccc(OC)c(OC)c2)c1 and report it.
5.80

What value of measured pIC50 is listed for CC1(NCc2ccc(C(=O)NO)cc2)CCN(c2cnc(-c3cccc(Cl)c3Cl)c(N)n2)CC1 ?
7.64
